Provenance of the data: patent US20250242041A1

Target: T1, human αvβ6 on 293F:huβ6 cells (human, UniProt P06756 31-1048; P18564 22-788)
T1 chain 1: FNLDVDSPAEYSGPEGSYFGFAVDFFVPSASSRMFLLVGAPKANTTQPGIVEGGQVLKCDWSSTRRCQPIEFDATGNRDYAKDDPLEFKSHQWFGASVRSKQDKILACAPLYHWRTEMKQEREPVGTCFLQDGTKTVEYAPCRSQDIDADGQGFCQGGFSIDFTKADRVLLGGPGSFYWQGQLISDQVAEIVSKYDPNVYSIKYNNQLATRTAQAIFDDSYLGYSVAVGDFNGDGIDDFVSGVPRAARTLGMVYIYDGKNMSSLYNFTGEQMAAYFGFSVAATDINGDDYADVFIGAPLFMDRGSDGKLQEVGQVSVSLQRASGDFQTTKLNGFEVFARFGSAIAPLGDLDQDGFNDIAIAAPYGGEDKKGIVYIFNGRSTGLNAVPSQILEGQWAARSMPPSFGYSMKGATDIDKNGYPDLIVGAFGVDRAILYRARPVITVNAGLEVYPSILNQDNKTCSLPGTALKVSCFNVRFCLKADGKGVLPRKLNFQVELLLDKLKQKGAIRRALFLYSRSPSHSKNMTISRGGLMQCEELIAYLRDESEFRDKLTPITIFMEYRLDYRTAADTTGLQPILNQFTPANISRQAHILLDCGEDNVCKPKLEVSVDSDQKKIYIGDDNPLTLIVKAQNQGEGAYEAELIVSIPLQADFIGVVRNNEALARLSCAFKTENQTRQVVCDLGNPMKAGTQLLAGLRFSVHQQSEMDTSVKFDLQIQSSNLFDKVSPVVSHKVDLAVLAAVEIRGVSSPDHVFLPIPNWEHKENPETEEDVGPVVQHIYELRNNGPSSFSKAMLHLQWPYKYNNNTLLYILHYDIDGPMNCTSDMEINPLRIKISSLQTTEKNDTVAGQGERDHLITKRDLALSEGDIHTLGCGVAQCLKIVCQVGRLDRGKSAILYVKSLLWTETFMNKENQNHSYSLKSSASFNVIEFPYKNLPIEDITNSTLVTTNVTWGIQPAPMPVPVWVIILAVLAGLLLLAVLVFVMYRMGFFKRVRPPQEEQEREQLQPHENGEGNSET
T1 chain 2: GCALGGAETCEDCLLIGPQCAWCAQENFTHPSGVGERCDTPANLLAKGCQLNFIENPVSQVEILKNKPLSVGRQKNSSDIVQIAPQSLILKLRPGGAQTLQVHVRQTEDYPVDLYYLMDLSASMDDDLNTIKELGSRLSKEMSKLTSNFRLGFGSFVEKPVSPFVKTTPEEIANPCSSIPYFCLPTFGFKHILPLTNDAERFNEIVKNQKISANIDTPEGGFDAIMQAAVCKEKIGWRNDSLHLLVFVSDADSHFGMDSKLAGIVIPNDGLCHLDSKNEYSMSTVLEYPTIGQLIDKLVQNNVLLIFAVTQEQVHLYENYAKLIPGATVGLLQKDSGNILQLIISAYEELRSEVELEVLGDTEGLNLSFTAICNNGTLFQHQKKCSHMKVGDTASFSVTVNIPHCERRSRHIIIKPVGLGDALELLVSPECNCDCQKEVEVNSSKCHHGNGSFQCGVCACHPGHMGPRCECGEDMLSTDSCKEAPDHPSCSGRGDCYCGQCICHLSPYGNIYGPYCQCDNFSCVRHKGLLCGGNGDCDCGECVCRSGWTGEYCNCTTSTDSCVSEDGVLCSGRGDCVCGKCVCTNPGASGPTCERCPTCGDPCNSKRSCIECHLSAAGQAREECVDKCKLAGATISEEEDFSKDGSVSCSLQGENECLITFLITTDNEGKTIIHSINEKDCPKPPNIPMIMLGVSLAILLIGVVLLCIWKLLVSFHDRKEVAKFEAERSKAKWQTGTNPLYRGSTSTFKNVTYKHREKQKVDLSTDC
Assay: competition binding on 293F cells; 2nM m2A2-AF647 competitor
pEC50: −log10 of the molar value.
MEASURED PARAMETER: pEC50

INSERT INTO assay_data (binder, measured_parameter, assay_result) VALUES
  ('h2A2 HDLB (antibody, V domains shown) VH: QFQLVQSGAEVKKPGASVKVSCKASGYSFTDYNVNWVRQAPGQGLEWIGVINPKYGTTRYNQKFKGRATLTVDKPTSTAYMELSSLRSEDTAVYYCTRGLNAWDYWGQGTLVTVSS VL: DIQMTQSPSSLSASVGDRVTITCGASENIYGALNWYQQKPGKAPKLLIYGATNLADGVPSRFSGSGSGRDYTFTISSLQPEDIATYYCQNVLTTPYTFGQGTKLEIKR', 'pEC50', 8.22);
